Where a SMILES comes first, the peptide text is derived from it.
MEASURE: logP
# respond with the number and nothing more

GET /value?item= COC(=O)c1cc2cccc3ccc4cccc1c4c32 &field=logP returns 4.73

For this compound ( CCCCNCc1ccc(C)cc1 ), measured logP is 3.49

Just so you know, measured logP for COc1cc(-n2c(C(F)(F)F)nn(C)c2=S)cc(OC)c1OC came out at 2.04

logP for CN1CCN(C2=NC(=O)N(c3ccc(Cl)cc3)C2)CC1 is 2.2

For CCC(C)c1cnc(CC(C)C)c(=O)n1O (stereo unspecified) the compound record lists logP as 1.81

Quick note, logP for O=C(O)C1CSC(c2ccc(O)cc2O)=N1 (stereo unspecified) landed at 1.1

For record Clc1ccc(Cl)c2c1oc1c(Cl)ccc(Cl)c12 the listed logP is 5.6

// field: logP; key: C=CCNC(=O)N(CCCCC(NC(C)=O)C(=O)NCc1ccccc1)Cc1ccccc1 (stereo unspecified) ; value = 1.98

Value of measured logP for the entry COc1ccc2c(C)cc(=O)oc2c1 : 1.89

Record CNc1ncnc2[nH]cnc12 , field logP: 0.43

Reported logP for CC(C)NC(=NC#N)NS(=O)(=O)c1cnccc1NC1CC1 was 0.01

Field logP (entry O=C1N=C(N2CCOCC2)CN1c1ccccc1 ) reads 0.6

For record COC(=O)c1ccc(OP(=O)(NC(C)C(=O)OC)OCC2C=CC(n3cc(C)c(=O)[nH]c3=O)O2)cc1 (stereo unspecified) the listed logP is 1.01

According to the records, this compound Cc1c(C)c2occc2c2oc(=O)ccc12 displays logP of 2.84

Looking up OC(CNCCc1ccccc1)CON=C(C1CC1)C1CC1 (stereo unspecified) , I see its logP listed as 2.44

response.value for O=C(Cc1c(Cl)cc(Cl)cc1Cl)Oc1coc(CO)cc1=O (field: logP) = 1.92

logP recorded for this compound, CCCNC(C)C(=O)Nc1c(C)csc1C(=O)OC (stereo unspecified) , is 1.89

Looking up COc1ccc(-c2cn3cc(N)cnc3n2)c(OC)c1 , I see its logP listed as 1.68

logP for Cc1c2occc2cc2ccc(=O)oc12 is 2.48

Summary for this compound, CC(C)CC(N)C(=O)NC(CC(C)C)C(=O)NC(C)C(=O)NC(Cc1ccccc1)C(=O)O (stereo unspecified) (H-LLAF-OH; configuration not given here) : logP is -1

Input CCCc1nc(NCC)nc(N2CCCCC2)n1 . Output logP: 3.34

// logP lookup, compound = CC(CC(=O)c1ccc(-c2ccc(F)cc2F)cc1)C(=O)O (stereo unspecified) , result: 3.78

Value of measured logP for the entry CC(C)CC(NC(=O)C(NC(=O)C(N)C(C)O)C(C)C)C(=O)O (stereo not drawn) (H-Thr-Val-Leu-OH; configuration not given here) : -1.97

Documented logP of O=C1C=C(c2ccc(Cl)cc2)C(=O)N1c1ccc(Cl)cc1 : 3

Please fill in: logP reported for NC(=O)C(CCN1CC2CCC(CC2)C1)(c1ccccc1)c1ccccn1 (stereo unspecified) = 2.72

Input Nc1nc(N)c2c(S(=O)(=O)c3ccccc3)cccc2n1 . Output logP: 2.14

Looking up COC(=O)C(C)=CC1C(C(=O)OCc2ccccc2)C1(C)C (stereo unspecified) , I found its logP recorded as 4.4

Lab note: Nc1nc(N)c2c(Br)cccc2n1 gave logP of 1.91

Sure, the documented logP for COc1ccc2c(c1)COP(=O)(OCC1C=CC(n3cc(C)c(=O)[nH]c3=O)O1)O2 (stereo unspecified) is 0.36

What the record says about CCCCCCNc1[nH]cnc2ncnc1-2 : logP is 3.16

The recorded logP for entry O=C1N=C(N2CCOCC2)CN1Cc1cccc(Cl)c1 equals 1.3

Item: Fc1cncnc1 | logP: -0.03

# compound Nc1nc(N)nc(O)n1 ; its logP = -0.19

Value of measured logP for the entry Brc1cc2cccc3ccc4cccc1c4c32 : 5.84

Entry OC(CNCc1ccccc1)CON=C(C1CC1)C1CC1 (stereo unspecified) — recorded logP = 2.08

Lookup result for COc1cc(OC)c(Cl)cc1N ; measured logP: 1.45

Record summary for Cc1cc2ccc(=O)oc2c2ccoc12 : reported logP = 2.39

Looking up Nc1nc(N)c2c(F)cccc2n1 , I see its logP listed as 1.19

response.value for COC(=O)C=CCn1ccnc1[N+](=O)[O-] (field: logP) = 0.32

The compound identified as Cc1coc2c1c(C)cc1oc(=O)cc(C)c12 registered its logP at 3.28

Sure, the documented logP for CCCc1nc(NCC(=O)N(C)C)nc(N2CCOCC2)n1 is 0.67
